- Test: Cmax value at the period of 800 mg po for every 8 hr.
- Format: ADME, organism-based
- Set-up: dose 800 mg, route oral
- Measurement Context: in vivo
Reported Property: Cmax (µM)
Answer with a number only, understood to be in µM.

For reference, reported Cmax for "CC(C)(C)NC(=O)[C@@H]1CN(Cc2cccnc2)CCN1C[C@@H](O)C[C@@H](Cc1ccccc1)C(=O)N[C@H]1c2ccccc2C[C@H]1O.O" stands at 12

---

List of pKi tested on Cathepsin B (Homo sapiens).
pKi: −log10 of the molar value.

Below, 2 compounds whose answers are already recorded.
CC(C)C[C@H](C(=O)NCC(=O)CNS(=O)(=O)c1ccc(Oc2ccccc2)cc1)c1cccc(-c2ccccc2)c1: < 5.00
CC(C)C[C@H](NC(=O)OCc1ccccc1)C(=O)NC1CCN(S(=O)(=O)c2ccc(Oc3ccccc3)cc2)CC1=O (stereo partly drawn): < 6.00

Attention now shifts to the item below.
Observed pKi on Cathepsin B (Homo sapiens), entry "CC(C)C[C@H](NC(=O)OCc1ccccc1)C(=O)NCC(=O)CNC(=O)[C@H](CC(C)C)NC(=O)OCc1ccccc1" , equals 5.89

Just for reference, ChEMBL document CHEMBL1133572 is where these values come from.
